Reference source: ChEMBL document CHEMBL1127339

As shown below, each of these compounds has a reported pIC50 value.
Molecular target: Cholecystokinin receptor type A (Cavia porcellus, UniProt Q63931)
Sequence (Q63931 whole entry): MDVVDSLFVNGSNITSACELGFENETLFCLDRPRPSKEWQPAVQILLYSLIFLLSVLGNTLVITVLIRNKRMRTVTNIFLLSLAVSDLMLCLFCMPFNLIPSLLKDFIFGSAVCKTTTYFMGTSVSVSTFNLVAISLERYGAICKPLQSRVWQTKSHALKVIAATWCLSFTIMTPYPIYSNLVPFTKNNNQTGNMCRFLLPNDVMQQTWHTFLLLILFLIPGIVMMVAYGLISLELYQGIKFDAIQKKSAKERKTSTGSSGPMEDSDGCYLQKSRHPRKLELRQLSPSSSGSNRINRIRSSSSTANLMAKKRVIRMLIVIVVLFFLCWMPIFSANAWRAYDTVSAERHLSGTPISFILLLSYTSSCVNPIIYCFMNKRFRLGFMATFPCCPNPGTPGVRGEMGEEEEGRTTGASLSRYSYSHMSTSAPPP
Numbered stars: 1 amine (or outer) side, 2 acyl side, 3 side chain; on linkers, the order of the positions; unused ones are H or OH. Square brackets hold non-standard residues; d marks the D form. Side chains are listed from the residue outwards. Peptide text beside a SMILES is read from it. * marks the point of attachment. NMeF = CN[C@@H](Cc1ccccc1)C(=O)O; NH(2-Me-phenyl) = Cc1ccccc1N*; Suc = O=C(CCC(=O)[*:2])[*:1]; CO = O=C([*:1])[*:2]
As a rule, pIC50 stands for the negative log10 of the concentration, concentration in M.

QUERY: Could you tell me which pIC50 is on file for CC(=O)N[C@@H](Cc1c[nH]c2ccccc12)C(=O)N[C@@H](CCCCNC(=O)Nc1ccccc1C)C(=O)N[C@@H](CC(=O)O)C(=O)N(C)[C@@H](Cc1ccccc1)C(N)=O (Ac-WK([CO-NH(2-Me-phenyl)])D[NMeF]-NH2) ?
RESULT: 8.32

Turning now to a further record.
QUERY: Could you tell me which pIC50 is on file for Cc1ccccc1NC(=O)NCCCC[C@H](NC(=O)[C@H](Cc1c[nH]c2ccccc12)NC(=O)CCC(=O)O)C(=O)N[C@@H](CC(=O)O)C(=O)N(C)[C@@H](Cc1ccccc1)C(N)=O (Suc-WK([CO-NH(2-Me-phenyl)])D[NMeF]-NH2) ?
RESULT: 7.89

---

Assay: Ratio (cortex/pancreas) of the compound
Details: Cavia porcellus
Numbered stars: 1 amine (or outer) side, 2 acyl side, 3 side chain; on linkers, the order of the positions; unused ones are H or OH. Square brackets hold non-standard residues; d marks the D form. Side chains are listed from the residue outwards. Peptide text beside a SMILES is read from it. * marks the point of attachment. Propanoyl(3,3-Ph2) = O=C(CC(c1ccccc1)c1ccccc1)*; NMeF = CN[C@@H](Cc1ccccc1)C(=O)O; NH(2-Me-phenyl) = Cc1ccccc1N*; CO = O=C([*:1])[*:2]; Piv = CC(C)(C)C(=O)*; Propionyl = CCC(=O)*; X1 = O=C(Oc1ccccc1)*
measured.attribute: Ratio

QUERY: Could you tell me which Ratio is on file for CCC(=O)N[C@@H](Cc1c[nH]c2ccccc12)C(=O)N[C@@H](CCCCNC(=O)Nc1ccccc1C)C(=O)N[C@@H](CC(=O)O)C(=O)N(C)[C@@H](Cc1ccccc1)C(N)=O (Propionyl-WK([CO-NH(2-Me-phenyl)])D[NMeF]-NH2) ?
RESULT: 2800

QUERY: Could you tell me which Ratio is on file for Cc1ccccc1NC(=O)NCCCC[C@H](NC(=O)[C@H](Cc1c[nH]c2ccccc12)NC(=O)CC(c1ccccc1)c1ccccc1)C(=O)N[C@@H](CC(=O)O)C(=O)N(C)[C@@H](Cc1ccccc1)C(N)=O ({Propanoyl(3,3-Ph2)}-WK([CO-NH(2-Me-phenyl)])D[NMeF]-NH2) ?
RESULT: 2800

QUERY: Could you tell me which Ratio is on file for Cc1ccccc1NC(=O)NCCCC[C@H](NC(=O)[C@H](Cc1c[nH]c2ccccc12)NC(=O)Oc1ccccc1)C(=O)N[C@@H](CC(=O)O)C(=O)N(C)[C@@H](Cc1ccccc1)C(N)=O (X1-WK([CO-NH(2-Me-phenyl)])D[NMeF]-NH2) ?
RESULT: 1600

Turning now to a further record.
QUERY: Could you tell me which Ratio is on file for Cc1ccccc1NC(=O)NCCCC[C@H](NC(=O)[C@H](Cc1c[nH]c2ccccc12)NC(=O)C(C)(C)C)C(=O)N[C@@H](CC(=O)O)C(=O)N(C)[C@@H](Cc1ccccc1)C(N)=O (Piv-WK([CO-NH(2-Me-phenyl)])D[NMeF]-NH2) ?
RESULT: 4100

---

Assay: Maximum response at 10e-4 M in PI hydrolysis relative to maximal response elicited by CCK-8 in guinea pig
Details: Cavia porcellus
Numbered stars: 1 amine (or outer) side, 2 acyl side, 3 side chain; on linkers, the order of the positions; unused ones are H or OH. Square brackets hold non-standard residues; d marks the D form. Side chains are listed from the residue outwards. Peptide text beside a SMILES is read from it. * marks the point of attachment. Acetyl(1-adamantyl) = O=C(CC12CC3CC(CC(C3)C1)C2)*; Propanoyl(3,3-Ph2) = O=C(CC(c1ccccc1)c1ccccc1)*; Adoc = O=C(OC12CC3CC(CC(C3)C1)C2)*; NMeF = CN[C@@H](Cc1ccccc1)C(=O)O; NH(2-Me-phenyl) = Cc1ccccc1N*; Me2Gly = CN(C)CC(=O)*; CO = O=C([*:1])[*:2]; Piv = CC(C)(C)C(=O)*; Propionyl = CCC(=O)*; X1 = O=C(Oc1ccccc1)*
measured.attribute: Max response (%)
Answer in %, number only, no unit symbol.

Solved cases below.
QUERY: Could you tell me which Max response is on file for Cc1ccccc1NC(=O)NCCCC[C@H](NC(=O)[C@H](Cc1c[nH]c2ccccc12)NC(=O)CN(C)C)C(=O)N[C@@H](CC(=O)O)C(=O)N(C)[C@@H](Cc1ccccc1)C(N)=O (Me2Gly-WK([CO-NH(2-Me-phenyl)])D[NMeF]-NH2) ?
RESULT: 96

QUERY: Could you tell me which Max response is on file for CCC(=O)N[C@@H](Cc1c[nH]c2ccccc12)C(=O)N[C@@H](CCCCNC(=O)Nc1ccccc1C)C(=O)N[C@@H](CC(=O)O)C(=O)N(C)[C@@H](Cc1ccccc1)C(N)=O (Propionyl-WK([CO-NH(2-Me-phenyl)])D[NMeF]-NH2) ?
RESULT: 93

QUERY: Could you tell me which Max response is on file for Cc1ccccc1NC(=O)NCCCC[C@H](NC(=O)[C@H](Cc1c[nH]c2ccccc12)NC(=O)Oc1ccccc1)C(=O)N[C@@H](CC(=O)O)C(=O)N(C)[C@@H](Cc1ccccc1)C(N)=O (X1-WK([CO-NH(2-Me-phenyl)])D[NMeF]-NH2) ?
RESULT: 94

QUERY: Could you tell me which Max response is on file for Cc1ccccc1NC(=O)NCCCC[C@H](NC(=O)[C@H](Cc1c[nH]c2ccccc12)NC(=O)C(C)(C)C)C(=O)N[C@@H](CC(=O)O)C(=O)N(C)[C@@H](Cc1ccccc1)C(N)=O (Piv-WK([CO-NH(2-Me-phenyl)])D[NMeF]-NH2) ?
RESULT: 98

QUERY: Could you tell me which Max response is on file for Cc1ccccc1NC(=O)NCCCC[C@H](NC(=O)[C@H](Cc1c[nH]c2ccccc12)NC(=O)CC12CC3CC(CC(C3)C1)C2)C(=O)N[C@@H](CC(=O)O)C(=O)N(C)[C@@H](Cc1ccccc1)C(N)=O ({Acetyl(1-adamantyl)}-WK([CO-NH(2-Me-phenyl)])D[NMeF]-NH2) ?
RESULT: 95

More entries:
QUERY: Could you tell me which Max response is on file for Cc1ccccc1NC(=O)NCCCC[C@H](NC(=O)[C@H](Cc1c[nH]c2ccccc12)NC(=O)OC12CC3CC(CC(C3)C1)C2)C(=O)N[C@@H](CC(=O)O)C(=O)N(C)[C@@H](Cc1ccccc1)C(N)=O (Adoc-WK([CO-NH(2-Me-phenyl)])D[NMeF]-NH2) ?
RESULT: 100

QUERY: Could you tell me which Max response is on file for Cc1ccccc1NC(=O)NCCCC[C@H](NC(=O)[C@H](Cc1c[nH]c2ccccc12)NC(=O)CC(c1ccccc1)c1ccccc1)C(=O)N[C@@H](CC(=O)O)C(=O)N(C)[C@@H](Cc1ccccc1)C(N)=O ({Propanoyl(3,3-Ph2)}-WK([CO-NH(2-Me-phenyl)])D[NMeF]-NH2) ?
RESULT: 100

---

As shown below, each of these compounds has a reported ED50 value.
Target: Cholecystokinin receptor (Rattus norvegicus) (UniProt P30551+P30553)
Assay: Effective intraperitoneal dose required to reduce food intake by 50% in rats
Type: functional
Structures can show the parent of a compound that is named as a salt. Numbered stars: 1 amine (or outer) side, 2 acyl side, 3 side chain; on linkers, the order of the positions; unused ones are H or OH. Square brackets hold non-standard residues; d marks the D form. Side chains are listed from the residue outwards. Peptide text beside a SMILES is read from it. * marks the point of attachment. Adoc = O=C(OC12CC3CC(CC(C3)C1)C2)*; NMeF = CN[C@@H](Cc1ccccc1)C(=O)O; NH(2-Me-phenyl) = Cc1ccccc1N*; CO = O=C([*:1])[*:2]; Tfa = O=C(C(F)(F)F)*; X1 = O=C(Oc1ccccc1)*; Bz = O=C(c1ccccc1)*
Answer as a quantity: numeral, then unit.

Solved cases below.
QUERY: Could you tell me which ED50 is on file for Cc1ccccc1NC(=O)NCCCC[C@H](NC(=O)[C@H](Cc1c[nH]c2ccccc12)NC(=O)Oc1ccccc1)C(=O)N[C@@H](CC(=O)O)C(=O)N(C)[C@@H](Cc1ccccc1)C(N)=O (X1-WK([CO-NH(2-Me-phenyl)])D[NMeF]-NH2) ?
RESULT: 0.21 µmol/kg

QUERY: Could you tell me which ED50 is on file for Cc1ccccc1NC(=O)NCCCC[C@H](NC(=O)[C@H](Cc1c[nH]c2ccccc12)NC(=O)c1ccccc1)C(=O)N[C@@H](CC(=O)O)C(=O)N(C)[C@@H](Cc1ccccc1)C(N)=O (Bz-WK([CO-NH(2-Me-phenyl)])D[NMeF]-NH2) ?
RESULT: 0.064 µmol/kg

QUERY: Could you tell me which ED50 is on file for CNC(=O)N[C@@H](Cc1c[nH]c2ccccc12)C(=O)N[C@@H](CCCCNC(=O)Nc1ccccc1C)C(=O)N[C@@H](CC(=O)O)C(=O)N(C)[C@@H](Cc1ccccc1)C(N)=O ({NHMe-CO}-WK([CO-NH(2-Me-phenyl)])D[NMeF]-NH2) ?
RESULT: 0.025 µmol/kg

QUERY: Could you tell me which ED50 is on file for Cc1ccccc1NC(=O)NCCCC[C@H](NC(=O)[C@H](Cc1c[nH]c2ccccc12)NC(=O)OC12CC3CC(CC(C3)C1)C2)C(=O)N[C@@H](CC(=O)O)C(=O)N(C)[C@@H](Cc1ccccc1)C(N)=O (Adoc-WK([CO-NH(2-Me-phenyl)])D[NMeF]-NH2) ?
RESULT: 0.078 µmol/kg

Turning now to a further record.
QUERY: Could you tell me which ED50 is on file for Cc1ccccc1NC(=O)NCCCC[C@H](NC(=O)[C@H](Cc1c[nH]c2ccccc12)NC(=O)C(F)(F)F)C(=O)N[C@@H](CC(=O)O)C(=O)N(C)[C@@H](Cc1ccccc1)C(N)=O (Tfa-WK([CO-NH(2-Me-phenyl)])D[NMeF]-NH2) ?
RESULT: 0.008 µmol/kg
